# TARGET ENTITY: RARβ (Homo sapiens, UniProt P10826)
# Sequence (P10826 183-417 limits assumed): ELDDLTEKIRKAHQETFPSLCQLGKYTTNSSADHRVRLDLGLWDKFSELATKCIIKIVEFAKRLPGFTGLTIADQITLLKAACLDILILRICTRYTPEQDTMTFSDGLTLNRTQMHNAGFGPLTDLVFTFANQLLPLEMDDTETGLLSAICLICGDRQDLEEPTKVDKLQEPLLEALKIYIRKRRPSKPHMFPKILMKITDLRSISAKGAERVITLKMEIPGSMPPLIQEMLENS
# METHOD DESCRIPTION: chimeric receptor transactivation assay, RARβ
# Assay type: cell-based
# STUDY CONDITIONS: value in parentheses
QUANTITY: RAR β (EFFICACY)

Task: So what does the record say about RAR β (EFFICACY) for CN(C1CC1)C1CCC(C)(C)c2cc(C#Cc3ccc(C(=O)O)cc3)ccc21 (stereo not shown) ?
Output: (54)

Task: Now the same for CCCNC1(c2ccc(C#Cc3ccc(C(=O)O)cc3)cc2)CC1
Output: (36)

Task: Now the same for CC1(C)CCC(=O)c2ccc(C#Cc3ccc(C(=O)O)c(F)c3)cc21
Output: (86)

Task: Now the same for Cc1cc(C#Cc2ccc(C(=O)O)cc2)ccc1C1(OC(C)C)CC1
Output: (77)

Task: Now the same for CCCN(CCC)C1(c2ccc(C#Cc3ccc(C(=O)O)cc3)cc2)CC1
Output: (44)

Task: Now the same for CC(C)OC1(c2ccc(C#Cc3ccc(C(=O)O)cc3)cc2)CC1
Output: (39)

Task: Now the same for CC1(C)CC2(CC2)Oc2ccc(C#Cc3ccc(C(=O)O)c(F)c3)cc21
Output: (100)

Task: Now the same for CN(C1CC1)C1CCC(C)(C)c2cc(C#Cc3ccc(C(=O)O)c(F)c3)ccc21 (stereo not shown)
Output: (6.6)

Task: Now the same for COC1(c2ccc(C#Cc3ccc(C(=O)O)cc3)cc2)CC1
Output: (50)

Task: Now the same for O=C(O)c1ccc(C#Cc2ccc(C3(NCc4ccccc4)CC3)cc2)cc1
Output: (37)

Next:
Task: So what does the record say about RAR β (EFFICACY) for CC1(C)CCC(=O)c2ccc(C#Cc3ccc(CC(=O)O)cc3)cc21 ?
Output: (36)

Task: Now the same for CN(C1CC1)C1CCC(C)(C)c2cc(C#Cc3ccc(CC(=O)O)cc3)ccc21 (stereo not shown)
Output: (96)

Task: Now the same for CCc1cc(C#Cc2ccc(C(=O)O)cc2)ccc1C1(OCc2ccccc2)CC1
Output: (39)

Task: Now the same for Cc1cc(C#Cc2ccc(C(=O)O)cc2)ccc1C1(OCC(C)(C)C)CC1
Output: (50)

Task: Now the same for CC1(C)CC2(CC2)Oc2ccc(C#Cc3ccc(C(=O)O)cc3)cc21
Output: (126)

Task: Now the same for Cc1cc(C#Cc2ccc(C(=O)O)cc2)ccc1C1(OCc2ccccc2)CC1
Output: (80)

----------
# TARGET ENTITY: UniProt P13631
# Sequence (P13631 185-419 limits assumed): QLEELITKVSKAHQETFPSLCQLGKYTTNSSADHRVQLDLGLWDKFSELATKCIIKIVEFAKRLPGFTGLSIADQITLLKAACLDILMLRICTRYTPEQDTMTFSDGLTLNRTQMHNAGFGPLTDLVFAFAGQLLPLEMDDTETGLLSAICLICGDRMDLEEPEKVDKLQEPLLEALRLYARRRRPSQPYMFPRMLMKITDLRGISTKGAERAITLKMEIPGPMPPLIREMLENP
# METHOD DESCRIPTION: chimeric receptor transactivation assay, RARγ
# Type: cell-based
# STUDY CONDITIONS: value in parentheses
QUANTITY: RAR γ (EFFICACY)

Task: Return RAR γ (EFFICACY) measured with UniProt P13631 given this compound: CC1(C)CC2(CC2)Oc2ccc(C#Cc3ccc(C(=O)O)cc3)cc21
Output: (140)

Task: Now the same for CCc1cc(C#Cc2ccc(C(=O)O)cc2)ccc1C1(OCc2ccccc2)CC1
Output: (55)

Task: Now the same for CC1(C)CC2(CC2)Oc2ccc(C#Cc3ccc(C(=O)O)c(F)c3)cc21
Output: (116)

Task: Now the same for CN(C1CC1)C1CCC(C)(C)c2cc(C#Cc3ccc(C(=O)O)cc3)ccc21 (stereo not shown)
Output: (52)

----------
# TARGET ENTITY: RARβ (Homo sapiens, UniProt P10826)
pKd: −log10 of the molar value.
QUANTITY: pKd

Task: Return pKd measured with RARβ (Homo sapiens, UniProt P10826) given this molecule: Cc1cc(C#Cc2ccc(CC(=O)O)cc2)ccc1Cn1ccnc1
Output: < 4.00

Origin of measurements: patent US20020160986A1
